Documented inhibition at 300 µM across a set of compounds
# Tested on: collagen induced platelet-aggregation (Platelet Rich Plasma)
# Experiment summary: Inhibition of platelet-aggregation (collagen induced, aggregometer, rat PRP)
# Format: cell-based, Wistar-strain male rats
# Test conditions: Rattus norvegicus, Platelet, 1 min; 300 μM; collagen 4 μg/ml; PRP of Wistar-strain male rats 250-300 g; 1 minute at 37° C.; read-out: Inhibition rate (%)
Experimental readout: inhibition at 300 µM (%)

Compound: COc1ccccc1C(=O)c1cn(C(C)=O)c2ccccc12
Observed: 84
--
Compound: CC(=O)Oc1ccc(C(=O)c2cn(C(C)=O)c3ccccc23)cc1
Observed: 88
--
Compound: CC(=O)Oc1ccccc1C(=O)O [Aspirin, reference compound]
Observed: 60
--
Compound: COc1ccc(C(=O)c2c[nH]c3ccccc23)cc1
Observed: 62
